// provenance: a melting point compilation (Tetko et al.; mined from patent text by program, amines drawn as free bases though some values may be those of a salt)

// melting point lookup, one value per entry

[
  {
    "MOLECULE": "CCOC(=O)c1ccc(-c2cc3c(NCCCN4CCOCC4)ncnc3[nH]2)cc1",
    "melting point": "231 to 234 °C"
  },
  {
    "MOLECULE": "COc1cccc(-c2cnc3c(-c4cc(-c5ccccc5)cs4)cnn3c2O)c1",
    "melting point": "> 300 °C"
  },
  {
    "MOLECULE": "CCCC(=O)OC1=C(c2ccc(OC)cc2)S(=O)c2ccccc2-n2cccc21 (stereo not given)",
    "melting point": "113 to 115 °C"
  },
  {
    "MOLECULE": "CCC12CCC(=O)C=C1c1c(cc(OC(C)C(=O)OC3COC(C)(C)O3)c(Cl)c1Cl)C2 (stereo not given)",
    "melting point": "143 to 145 °C"
  },
  {
    "MOLECULE": "CN1CCC(c2nc(-c3ccncc3)c(-c3ccc(F)cc3)[nH]2)CC1",
    "melting point": "259 to 261 °C"
  }
]

###

melting point overview

[
  {
    "MOLECULE": "CC(C)(C)OC(=O)NCCNC(=O)c1cnc(S)n1Cc1cc(F)cc(F)c1",
    "melting point": "178 to 179 °C"
  },
  {
    "MOLECULE": "CCOCC1COc2cc(C(=O)O)c(N)cc2O1 (configuration not stated)",
    "melting point": "124 to 130 °C"
  },
  {
    "MOLECULE": "CCN1C(=O)C(C)(C)C(=O)N(C)c2cc(CN(CCn3ccc4ccsc4c3=O)Cc3cccnc3C)ccc21",
    "melting point": "125 to 127 °C"
  },
  {
    "MOLECULE": "COC(=O)C(C)(C)C(Cc1ccc(OC)cc1)N(C)S(=O)(=O)c1ccc(C)cc1 (configuration not stated)",
    "melting point": "132 to 134 °C"
  },
  {
    "MOLECULE": "COc1ccc(C)cc1NC(=O)Nc1ccc(N2CCN(C(=O)Nc3c(C)cccc3C(=O)O)CC2)cc1",
    "melting point": "159 to 160 °C"
  },
  {
    "MOLECULE": "CN(C)CCOC(=O)c1cccc2cc(-c3ccccc3)oc12",
    "melting point": "56.5 to 58 °C"
  },
  {
    "MOLECULE": "CCCc1c(C(=O)C(C)C)c2ccc(NC=O)cc2n1Cc1ccccc1Cl",
    "melting point": "113 to 115 °C"
  },
  {
    "MOLECULE": "O=c1[nH]ncc2cc(/C=C\\c3ccc(O)cc3)ccc12",
    "melting point": "210 °C"
  },
  {
    "MOLECULE": "Cn1nc(-c2cnc(N)nc2-c2ccc(F)c(F)c2)ccc1=O",
    "melting point": "231 °C"
  },
  {
    "MOLECULE": "CC(C)NC(=O)N1CCc2cc(S(=O)(=O)N3CC(c4ccccc4)NC3=O)ccc21 (configuration not stated)",
    "melting point": "120 to 122 °C"
  },
  {
    "MOLECULE": "CNC(=O)C(NC(=O)OCc1ccccc1)C(N)=O (configuration not stated)",
    "melting point": "178 to 180 °C"
  },
  {
    "MOLECULE": "Fc1cccc(CCc2nnc(-c3ccc4c(c3)CCO4)o2)c1",
    "melting point": "85 to 86 °C"
  },
  {
    "MOLECULE": "O=C(O)COc1ccc2c(-c3ccc(O)cc3F)noc2c1Cl",
    "melting point": "216 to 218 °C"
  },
  {
    "MOLECULE": "CC(=O)Nc1cc(C)c(O)cc1C",
    "melting point": "183 °C"
  },
  {
    "MOLECULE": "O=C(N[C@H]1CC[C@H](CCN2CCC(c3cccc4c3CCO4)CC2)CC1)c1ccc(-c2ccccc2)cc1",
    "melting point": "241 °C"
  },
  {
    "MOLECULE": "CCSc1nsc(NC(=O)NC)c1C(N)=O",
    "melting point": "205 °C"
  },
  {
    "MOLECULE": "CCc1noc(CN2C(=O)c3ccccc3C2=O)n1",
    "melting point": "106 to 107 °C"
  },
  {
    "MOLECULE": "Clc1cnn2c(-c3cccnc3)ccnc12",
    "melting point": "225 to 226 °C"
  },
  {
    "MOLECULE": "NC(C=Cc1ccccc1[N+](=O)[O-])=NO",
    "melting point": "173 °C"
  },
  {
    "MOLECULE": "CCC12CCC3c4ccc(OC)cc4CCC3C1CCC2OCCO (configuration not stated)",
    "melting point": "131 to 132 °C"
  },
  {
    "MOLECULE": "CCCCc1cc(NN)n2nccc2n1",
    "melting point": "126 to 129 °C"
  },
  {
    "MOLECULE": "COc1ccc(-c2nc(CCl)nc3sc(C)c(C)c23)cc1OC",
    "melting point": "117 to 118 °C"
  },
  {
    "MOLECULE": "Nc1ncnc2c1c(-c1cccc(O)c1)cn2-c1cccc(OCCCn2ccnc2)c1",
    "melting point": "120 to 122 °C"
  },
  {
    "MOLECULE": "CCCCCCCCCCCCCCCCNc1ccc(C(=O)NN)cc1",
    "melting point": "154 to 156 °C"
  },
  {
    "MOLECULE": "Clc1cc(C(Cl)(Cl)Cl)nc(C(Cl)(Cl)Cl)c1",
    "melting point": "101 to 102 °C"
  },
  {
    "MOLECULE": "Cn1cc(CC(=O)O)c(OCCCc2cn(-c3ccc(C(F)(F)F)cn3)nc2C2CCCCC2)n1",
    "melting point": "157 to 158 °C"
  },
  {
    "MOLECULE": "Cc1cn(C(=O)OC(C)(C)C)c2ccc(Br)cc12",
    "melting point": "92 °C"
  },
  {
    "MOLECULE": "c1ccc(-c2nc3c4ccccc4ccn3n2)cc1",
    "melting point": "157 to 158 °C"
  },
  {
    "MOLECULE": "COc1ncnc(OC)c1CON=C(C)c1cc(C)cc(C)n1",
    "melting point": "125 to 126 °C"
  },
  {
    "MOLECULE": "O=C(O)c1nn(-c2ccc(Cl)cc2Cl)c2c1CCc1c(Br)csc1-2",
    "melting point": "239 to 242 °C"
  },
  {
    "MOLECULE": "CC(=O)SCC(Cc1ccccc1C)C(=O)O (configuration not stated)",
    "melting point": "63 to 70 °C"
  },
  {
    "MOLECULE": "CCCCCCCCCCCCC(OC)C1=CC(=O)OC1O (configuration not stated)",
    "melting point": "53 to 54 °C"
  },
  {
    "MOLECULE": "Cn1c(CO)nc2cc(Cl)cnc21",
    "melting point": "141 to 142 °C"
  },
  {
    "MOLECULE": "COC(C)(OC)c1nn(-c2c(Cl)cc(C(F)(F)F)cc2Cl)c(N)c1SC",
    "melting point": "149 °C"
  },
  {
    "MOLECULE": "C#CCN(C)CC(O)c1cccc(O)c1 (configuration not stated)",
    "melting point": "102 to 103 °C"
  },
  {
    "MOLECULE": "CCOC(=O)c1ccc(COc2cccc(NC(C)=O)c2C=O)cc1",
    "melting point": "116 to 119 °C"
  },
  {
    "MOLECULE": "CCOC(=O)/C=C/c1cc(OCc2ccc(OCc3nc(-c4ccco4)oc3C)c(OC)c2)nn1-c1ccccc1",
    "melting point": "127 to 128 °C"
  },
  {
    "MOLECULE": "CC1=C(/C=C/C(C)=C/C=C/C(C)=C/C(=O)O)C(C)(C)CCC1=O",
    "melting point": "184 to 187 °C"
  },
  {
    "MOLECULE": "Cn1ccnc1COc1cc(Oc2ccc(S(C)(=O)=O)cc2)cc2cc(C3=NCC(CC(N)=O)S3)[nH]c12 (configuration not stated)",
    "melting point": "130 to 131 °C"
  },
  {
    "MOLECULE": "FC(F)(F)c1nc(Cl)c(-c2ccccc2)c(-c2ccccc2)n1",
    "melting point": "105 to 107 °C"
  },
  {
    "MOLECULE": "CC(=O)N(C)c1ccc2c(c1)C(c1ccccc1F)=NCc1cnc(C)n1-2",
    "melting point": "217 to 223 °C"
  },
  {
    "MOLECULE": "OCCCn1c(=S)[nH]c2c(OCc3ccccc3)cccc21",
    "melting point": "124 to 125 °C"
  }
]
